tested on: A498 renal; assay: NCI-60 one-dose screen, 48 h (100 = growth as untreated, 0 = no growth, -100 = all killed); conditions: 10 µM
About 83,000 compounds went through this panel and 20% of them were active in at least one assay; those are over-represented in the sample as a whole.
We begin with a simple list: items and their reported growth.
Enter your answer as a number in %; do not include the unit.

COMPOUND	MEASURED ENDPOINT	ASSAY VALUE
Cc1nn(-c2ccccc2)c2nc(Cl)c(C=O)c(-c3ccccc3)c12	growth	78.6
CC(=O)[C@@]12O[C@](C)(c3ccccc3)O[C@@H]1CC1C3CCC4=CC(=O)CC[C@]4(C)C3CC[C@@]12C (stereo not given in full)	growth	68.2
COc1cc(/C=C2\CCCC3C2=Nc2ccccc2NC3c2cc(OC)c(OC)c(OC)c2)cc(OC)c1OC (stereo not given)	growth	-22.4
COc1ccc(Cc2cnc(N)nc2N)cc1OC	growth	73.4
COc1cc2cc(Oc3ccc(NC(=O)c4cccc(C(F)(F)F)c4)cc3)c(C)nc2cc1OC	growth	0.391

Consider now this further compound.
Given the compound CCCC1(CN2c3ccccc3Sc3ccc(Cl)cc32)CCN(CC)C1 (stereo not given) , what is its reported growth?
8.05

###

system: SNB-19 CNS; assay: NCI-60 one-dose screen, 48 h (100 = growth as untreated, 0 = no growth, -100 = all killed); conditions: 10 µM
About 83,000 compounds went through this panel and 20% of them were active in at least one assay; those are over-represented in the sample as a whole.
Classes by growth: group A: < 30%; group B: ≥ 30% and < 60%; group C: ≥ 60%

For orientation, consider the following solved cases.
COMPOUND	DISCRETE LABEL
O=C1CCn2c1c(O)c1ccccc1c2=O	group C
COC1OC(COS(=O)OC)C(O)C(O)C1OS(=O)OC (stereo unspecified)	group C
O=C(NCCNC(=O)c1ccc(F)cc1)Nc1ccc(-n2cc(-c3ccncc3)c(-c3ccc(Cl)c(O)c3)n2)cc1	group A
CC(=O)OC1CC2C(C)(C)CCC[C@]2(C)C2=C1C(O)=C(C(C)C)C(=O)C2=O (stereo partly specified)	group A
COc1ccc(N(C)c2ncnc3occ(C)c23)cc1	group A

In the following, a different compound is considered.
Each compound maps to one class by growth. Which class for `C[C@@H](C[C@H](CCO)c1ccccc1)c1ccc2ccccc2c1` ?
group A

###

test system: HCC-2998 colon; experiment: NCI-60 one-dose screen, 48 h (100 = growth as untreated, 0 = no growth, -100 = all killed); conditions: 10 µM
About 83,000 compounds went through this panel and 20% of them were active in at least one assay; those are over-represented in the sample as a whole.
Listed here: items and their measured growth.
State the answer as a number, implicitly in %.

COMPOUND	UNIT DESCRIPTOR	growth
COc1cc2cc(Oc3ccc(NC(=O)Nc4ccc(Cl)c(Cl)c4)cc3)c(C)nc2cc1OC	%	37.6
O=C(COc1cccc(/C=C2\CSc3ccc(Cl)cc3C2=O)c1)c1ccc(Cl)cc1	%	32.9

Consider the record given below.
State the recorded growth for this entry: `Clc1nc2ccc(Br)cc2cc1-c1nc2ccccc2[nH]1`
108

###

test system: A498 renal; experiment: NCI-60 one-dose screen, 48 h (100 = growth as untreated, 0 = no growth, -100 = all killed); settings: 10 µM
About 83,000 compounds went through this panel and 20% of them were active in at least one assay; those are over-represented in the sample as a whole.
MEASURED ENDPOINT: growth (%)
Output spec: scalar in %, unitless text.

Worked examples, 3 compounds total:
COMPOUND	ASSAY VALUE
CC(C)(O)CCl	106
Cc1cc(=O)n2nnc3cc(Cl)c(Cl)cc3n12	138
CCCc1cn(CC(=O)Nc2nc3ccccc3s2)nn1	129

Consider the compound shown here: `CC(=O)Oc1cc(OC(C)=O)c2ccccc2c1OC(C)=O` What is its recorded growth?
95.2

Which growth reading was recorded for the compound `CC(C)(C)c1ccc(S(=O)(=O)N[C@H]2CC[C@H]3[C@@H]4CCc5cc(O)ccc5[C@H]4CC[C@]23C)cc1` ?
33.6

Give its growth value. Item: `COc1cc(-c2nn(-c3cccc(NC(=O)CN4CCOCC4)c3)cc2-c2cccnc2)ccc1Cl`
93.3
